Attribute: combination Emax
System: TCCSUP (Bladder Carcinoma)
experiment.summary: combination Emax (second highest fraction inhibited in the dose matrix, 72 h); higher = more inhibition; extreme values may be limits of the assay
Give only the figure.

Use the examples below as a reference point.
[Q] Quick check: combination Emax of CC1(C)CCC(CN2CCN(c3ccc(C(=O)NS(=O)(=O)c4ccc(NCC5CCOCC5)c([N+](=O)[O-])c4)c(Oc4cnc5[nH]ccc5c4)c3)CC2)=C(c2ccc(Cl)cc2)C1 [Venetoclax] + C=CCn1c(=O)c2cnc(Nc3ccc(N4CCN(C)CC4)cc3)nc2n1-c1cccc(C(C)(C)O)n1 [AZD1775] (first compound max 1 µM, partner max 1 µM) ?
[A] 0.475

[Q] Quick check: combination Emax of CCc1c2c(nc3ccc(O)cc13)-c1cc3c(c(=O)n1C2)COC(=O)[C@]3(O)CC [SN-38] + O=C(c1cc(Cc2n[nH]c(=O)c3ccccc23)ccc1F)N1CCN(C(=O)C2CC2)CC1 [Olaparib] (first compound max 0.3 µM, 7x7, partner max 10 µM) ?
[A] 0.665

[Q] Quick check: combination Emax of Cc1cc2ncnn2cc1Nc1ncc2c(n1)n(C1CCOCC1)c(=O)n2C [AZD7648] + CN(C)CCCOc1ccc(-c2ccc3ncc4c(c3c2)n(C2CCOCC2)c(=O)n4C)cn1 [AZD0156] (first compound max 10 µM, 7x7, partner max 1 µM) ?
[A] 0.197

[Q] Quick check: combination Emax of CC(=O)c1c(C)c2cnc(Nc3ccc(N4CCNCC4)cn3)nc2n(C2CCCC2)c1=O [Palbociclib] + Cc1c2c(nn1C)CSCc1cc(n(C)n1)CSc1cc(c3ccccc3c1)OCCCc1c(C(=O)O)n(C)c3c-2c(Cl)ccc13 [AZD5991] (first compound max 10 µM, 7x7, partner max 1 µM) ?
[A] 0.173

---
[Q] Quick check: combination Emax of COc1nnc2ccc(N3CCC(c4ccc(OCCN5CCN(C)C(=O)[C@H]5C)cc4)CC3)nn12 [AZD5153] + Cn1cnc2c(F)c(Nc3ccc(Br)cc3Cl)c(C(=O)NOCCO)cc21 [Selumetinib] (first compound max 1 µM, 7x7, partner max 10 µM) ?
[A] 0.337

[Q] Quick check: combination Emax of Cc1c2c(nn1C)CSCc1cc(n(C)n1)CSc1cc(c3ccccc3c1)OCCCc1c(C(=O)O)n(C)c3c-2c(Cl)ccc13 [AZD5991] + C1CN(CCC1(C(=O)N[C@@H](CCO)C2=CC=C(C=C2)Cl)N)C3=NC=NC4=C3C=CN4 [Capivasertib] (first compound max 1 µM, 7x7, partner max 3 µM) ?
[A] 0.25

[Q] Quick check: combination Emax of Cc1c2c(nn1C)CSCc1cc(n(C)n1)CSc1cc(c3ccccc3c1)OCCCc1c(C(=O)O)n(C)c3c-2c(Cl)ccc13 [AZD5991] + C[C@@H](Nc1cc(F)cc(F)c1)c1cc(C(=O)N(C)C)cc2c(=O)cc(N3CCOCC3)oc12 [AZD8186] (first compound max 1 µM, 7x7, partner max 3 µM) ?
[A] 0.227

This collection of values is drawn from the supplement of paper PMC11061612.
